assay: in vitro; details: human, hela cells, % viability
Value kind: viability at 28.5 h, 10 µM (%)
Kindly answer with a numeric value in %, unit omitted.

Form field viability at 28.5 h, 10 µM, entry O=C(c1ccncc1)N1CCc2cc(-c3csc(C4CC4)n3)ccc21 [CBK288618] : 94.5

Kindly note the recorded viability at 28.5 h, 10 µM for CC(C)n1c(SCC(=O)Nc2nc(C(C)(C)C)cs2)nc2c1c(=O)n(C)c(=O)n2C [CBK127417] , which is 104

// recorded viability at 28.5 h, 10 µM for CC(C)CC(=O)N1CCN(Cc2nc3sc4c(c3c(=O)[nH]2)CCC4)CC1 [CBK305014] : 86.4

Kindly note the recorded viability at 28.5 h, 10 µM for Cc1nc(N2CCOCC2)[nH]c(=O)c1CCC(=O)Nc1ccc(F)cc1 [CBK304990] , which is 91.1

The compound identified as CC1=C[C@@H](CNC(=O)c2cccnc2)[C@H](C(C)C)C[C@H]1CC(=O)N1CCOCC1 [CBK289053] registered its viability at 28.5 h, 10 µM at 92.4

Measured viability at 28.5 h, 10 µM of COc1ccc(F)cc1-c1ccc(S(=O)(=O)Nc2nc(CC(=O)N3CCOCC3)cs2)cc1 [CBK200031] : 88

Looking up CC1CC(C(F)F)n2nc(C(=O)O)nc2N1 (stereo not shown) [CBK267636] , I found its viability at 28.5 h, 10 µM recorded as 99.7

Entry Cc1cc(C)n(-c2ccc3nnc(CCC(=O)Nc4nccs4)n3n2)n1 [CBK307617] , viability at 28.5 h, 10 µM reported as 96.8

Recorded result, [O-][S+](CC(O)COc1ccc(Cl)cc1)c1ccccn1 (stereo not shown) [CBK261750] , viability at 28.5 h, 10 µM: 99.9

Quick note, viability at 28.5 h, 10 µM for CC1CN(Cc2nc3c(c(=O)[nH]c(=O)n3C)n2CCc2ccccc2)CC(C)O1 (stereo not shown) [CBK269876] landed at 98.1

Input COc1cc(CNc2nc(O)cc(C(F)(F)F)n2)cc(OC)c1OC [CBK002390] . Output viability at 28.5 h, 10 µM: 90.3

Lab book: viability at 28.5 h, 10 µM of CCc1ncsc1C(=O)NC1CCCN(c2ccn(C)n2)C1=O (stereo not shown) [CBK306498] noted as 104

# viability at 28.5 h, 10 µM (compound: CCCCC1CCC(C(=O)Nc2cc(C)c3c(=O)oc4ccccc4c3n2)CC1 (stereo not shown) [CBK291136] ) is 101

Record summary for CCN1CCN(c2ccc(NC(=O)c3ccc(-c4cc5ccccc5oc4=O)cc3)cc2Cl)CC1 [CBK266700] : reported viability at 28.5 h, 10 µM = 84.6

// CC1CCc2nc(NC(=O)c3ccccc3)sc2C1 (stereo not shown) [CBK287298] : viability at 28.5 h, 10 µM value = 97.2

Entry COc1cc(NC(=O)c2nn3c(c2Br)NC(c2cccs2)CC3C(F)(F)F)c(OC)cc1Cl (stereo not shown) [CBK263573] , viability at 28.5 h, 10 µM reported as 93.1

Please fill in: viability at 28.5 h, 10 µM reported for Cc1cc(Cl)c(S(=O)(=O)NCc2cccs2)cc1OCC(N)=O [CBK266496] = 101

Form field viability at 28.5 h, 10 µM, entry COc1ccc2cc(CNc3ccc(F)c([N+](=O)[O-])c3)c(Cl)nc2c1 [CBK295133] : 93.1

The recorded viability at 28.5 h, 10 µM for COc1ncccc1-c1cccnc1-n1ccnc1 [CBK176872] is 92.6
